Each recorded value in this set is attributed to PubChem BioAssay (NCI).

- Tested on: A549 NSCLC
- EXPERIMENT_DESCRIPTION: NCI tumour cell line growth inhibition, 48 h
ASSAY_METRIC: TGI

COMPOUND	TESTED_ON	ASSAY_METRIC	RESULT
CC1(C)CNC(=O)C2(C=NC(C)(C)CNC(=O)C3(C=N1)CCCO3)CCCO2 (stereo unspecified)	A549 NSCLC	TGI	> 10 µM
CCCCN=C(NC#N)NCCCC	A549 NSCLC	TGI	> 100 µM
FC(F)(F)c1cccc(Nc2nccc(-c3cnn4nc(-c5ccccc5)ccc34)n2)c1	A549 NSCLC	TGI	> 14.3 µM
NC(CCC(=O)NC(CSSCCCCS(=O)O)C(=O)NCC(=O)O)C(=O)O (stereo unspecified)	A549 NSCLC	TGI	> 100 µM

Below are some compounds; for each one, tell me its TGI.
1. COC12C=C(C)C(CC1)CC2C(=O)O (stereo unspecified)
2. O=c1c2cc([N+](=O)[O-])ccc2sc2ccsc12
3. O=C(Nc1ccccc1C(=O)NCCCO)/C(=C/c1ccccc1O)NC(=O)c1ccccc1
4. C=CCOCCCCC(C(C)=O)C(=O)OC (stereo unspecified)
5. CC1=NN(C(=O)Nc2ccccc2)C(=O)C2CCC(=O)N12 (stereo unspecified)
6. COc1ccc2cc(NC(=O)N/N=C\c3ccc(Cl)cc3)ccc2c1
7. CC1(C)C=C(S(=O)(=O)c2ccccc2)Oc2ccccc2O1

Solution:
["> 100 µM", "> 100 µM", "> 100 µM", "> 100 µM", "> 100 µM", "> 100 µM", "> 100 µM"]

* * *

- System: RXF-631 renal
- EXPERIMENT_DESCRIPTION: NCI tumour cell line growth inhibition, 48 h
ASSAY_METRIC: TGI

Known TGI results, listed for orientation:
COMPOUND	ASSAY_METRIC	RESULT
CCCCN=C(NC#N)NCCCC	TGI	> 100 µM
COC(=O)/C(=N/NC(=O)C[N+](C)(C)C)C(C(=O)OC)C(=O)C(=O)Nc1ccc(F)cc1 (configuration not stated)	TGI	> 100 µM
O=[N+]([O-])c1ccc(-c2ccc(-c3csc(Nc4ccccn4)n3)o2)cc1	TGI	> 100 µM
N#Cc1cc([N+](=O)[O-])ccc1NC(=O)C(=O)Nc1n[nH]c(N)n1	TGI	> 100 µM
O=C1C2c3[nH]c4ccccc4c3C3CCCCCCC3C2C(=O)N1c1ccccc1 (configuration not stated)	TGI	17.6 µM

Below are some compounds; for each one, tell me its TGI.
1. C/C(CC(=O)Nc1cc(Cl)c(Cl)cc1Cl)=N\NC(N)=O
2. O=C(Nc1cccc(O)c1)C(=O)C(C(=O)c1ccccc1F)C1OC(=O)c2ccccc21 (configuration not stated)

Solution:
["> 100 µM", "93.5 µM"]

* * *

Answer each item with its documented GI50.
- Test system: EKVX NSCLC
- EXPERIMENT_DESCRIPTION: NCI tumour cell line growth inhibition, 48 h

Known GI50 results, listed for orientation:
COMPOUND	GI50
C=C1C(=O)O[C@H]2[C@H]1CC/C(Cn1cc(-c3ccc(OC)cc3)nn1)=C\CC[C@@]1(C)O[C@@H]21	2.47 µM
CCOC(=O)[C]1([Bi]([CH3])[CH3])N=NC(C(=O)OC)=C1C(=O)OC (stereo unspecified)	18.7 µM

Below are some compounds; for each one, tell me its GI50.
1. Cc1ccc(NC(=O)c2cccc(N(C)C)c2)cc1NC(=O)c1ccc(O)cc1
2. O=c1[nH]ncc(Br)c1Br
3. O=C1c2cc(Cl)ccc2S(=O)(=O)c2c(NCCCNCCO)nc3ccccc3c21
4. Nc1nc(Cl)c2ncn(Cc3ccc(C45CC6CC(CC(C6)C4)C5)c(O)c3)c2n1

Solution:
1: > 79.7 µM; 2: 2.87 µM; 3: 1.66 µM; 4: 2.99 µM

Below are some compounds; for each one, tell me its GI50.
1. COc1cc(C2=NOC(c3cc(OC)c(OC)c(OC)c3)C2)ccc1OCCCCOc1cc2c(cc1OC)C(=O)N1CCC[C@H]1C=N2 (stereo partly specified)
2. CCOc1cc2c(Cl)ncnc2c(OCC)c1OCC
3. COC(=O)[C@]12CC[C@@H](C)[C@H](C)[C@@H]1C1=CC[C@@H]3[C@@]4(C)C/C(=N\O)[C@H](O)[C@@]5(C)COC(=C45)C[C@@]3(C)[C@]1(C)CC2
4. N#Cc1c(-c2ccc(F)cc2)nc(N/N=C/c2c[nH]c3ccccc23)nc1N1CCOCC1
5. Cn1c2ccccc2c2c(-c3ccccc3)[n+]3ccncc3nc21

Solution:
1: 0.471 µM; 2: 13.3 µM; 3: 10.3 µM; 4: 5.44 µM; 5: 51.4 µM
